Where do these numbers come from? They come from ChEMBL document CHEMBL1152126.

Target: Stromelysin-1 (Homo sapiens, UniProt P08254)
Sequence (P08254 whole entry, the tested form may be a part): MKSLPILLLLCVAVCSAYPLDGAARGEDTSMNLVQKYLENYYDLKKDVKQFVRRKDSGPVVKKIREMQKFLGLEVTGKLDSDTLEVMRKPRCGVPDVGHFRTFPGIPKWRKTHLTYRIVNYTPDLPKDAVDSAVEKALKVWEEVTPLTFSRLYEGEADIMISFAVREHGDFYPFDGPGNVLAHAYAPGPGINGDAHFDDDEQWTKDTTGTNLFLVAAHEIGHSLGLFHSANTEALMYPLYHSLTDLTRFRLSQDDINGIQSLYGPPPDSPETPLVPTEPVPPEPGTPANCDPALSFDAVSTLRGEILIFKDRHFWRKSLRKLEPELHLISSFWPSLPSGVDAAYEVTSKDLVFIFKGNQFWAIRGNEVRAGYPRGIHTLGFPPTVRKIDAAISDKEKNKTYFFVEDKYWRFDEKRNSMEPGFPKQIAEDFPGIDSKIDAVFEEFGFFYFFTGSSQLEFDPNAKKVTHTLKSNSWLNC
Assay: Inhibition of human recombinant MMP3 catalytic domain by spectrofluorimeter
REPORTED_PROPERTY: IC50 (µM)
Numbers only, in µM.

Worked cases, IC50 given:
SAMPLE_SMILES	REPORTED_PROPERTY	VALUE_OBSERVED
CNC(=O)[C@H](Cc1c(-c2ccccc2)[nH]c2ccccc12)NC(=O)/C(=C/CCc1ccccc1)CC(=O)NNS(=O)(=O)c1ccc(-c2ccc(Br)cc2)cc1	IC50	0.463
CNC(=O)[C@H](Cc1c[nH]c2ccccc12)NC(=O)[C@@H](CC(=O)NNS(=O)(=O)c1ccc(-c2ccc(Br)cc2)cc1)CC(C)C	IC50	1.7
CCCCCC/C=C(\CC(=O)NNS(=O)(=O)c1ccc(-c2ccc(Br)cc2)cc1)C(=O)N[C@@H](Cc1c[nH]c2ccccc12)C(=O)NC	IC50	2.54

Give IC50 for each listed item.
1. CNC(=O)[C@H](Cc1c[nH]c2ccccc12)NC(=O)/C(=C/CCc1ccccc1)CC(=O)NNS(=O)(=O)c1ccc(-c2ccc(Br)cc2)cc1
2. CNC(=O)[C@H](Cc1c[nH]c2ccccc12)NC(=O)[C@@H](CC(=O)NNS(=O)(=O)c1ccc2ccccc2c1)CC(C)C
3. CNC(=O)[C@H](Cc1c[nH]c2ccccc12)NC(=O)[C@@H](CC(=O)NNS(=O)(=O)c1ccc(N2C(=O)CCC2=O)cc1)CC(C)C
4. CNC(=O)[C@H](Cc1c[nH]c2ccccc12)NC(=O)[C@@H](CC(=O)NO)CC(C)C
5. CCCCCC/C=C(\CC(=O)NNS(=O)(=O)c1ccc(-c2ccc(Br)cc2)cc1)C(=O)N[C@@H](Cc1c(-c2ccccc2)[nH]c2ccccc12)C(=O)NC

Solution:
1. 3.86
2. 1.4
3. 0.92
4. 0.026
5. 0.174

Problem: Kindly state the measured IC50 obtained for CNC(=O)[C@H](Cc1c(-c2ccccc2)[nH]c2ccccc12)NC(=O)[C@@H](CC(=O)NNS(=O)(=O)c1ccc(-c2ccc(Br)cc2)cc1)CC(C)C with Stromelysin-1 (Homo sapiens, UniProt P08254).
Solution: 0.053

====

Molecular target: Matrix metalloproteinase-14 (Homo sapiens)
Assay: Inhibition of human recombinant MMP14 catalytic domain by spectrofluorimeter
REPORTED_PROPERTY: pIC50
Give bare numbers, as −log10 of the molar value.

COMPOUND	TGT	VALUE_OBSERVED
CNC(=O)[C@H](Cc1c[nH]c2ccccc12)NC(=O)[C@@H](CC(=O)NNS(=O)(=O)c1c(C(C)C)cc(C(C)C)cc1C(C)C)CC(C)C	Matrix metalloproteinase-14 (Homo sapiens)	5.51
CNC(=O)[C@H](Cc1c[nH]c2ccccc12)NC(=O)[C@@H](CC(=O)NNS(C)(=O)=O)CC(C)C	Matrix metalloproteinase-14 (Homo sapiens)	5.43
CNC(=O)[C@H](Cc1c[nH]c2ccccc12)NC(=O)[C@@H](CC(=O)NNS(=O)(=O)c1ccc2ccccc2c1)CC(C)C	Matrix metalloproteinase-14 (Homo sapiens)	5.00
CNC(=O)[C@H](Cc1c[nH]c2ccccc12)NC(=O)[C@@H](CC(=O)NNS(=O)(=O)c1ccc(Cl)cc1)CC(C)C	Matrix metalloproteinase-14 (Homo sapiens)	6.72

Give pIC50 for each listed item.
1. CCCCCCCCCCCCS(=O)(=O)NNC(=O)C[C@@H](CC(C)C)C(=O)N[C@@H](Cc1c[nH]c2ccccc12)C(=O)NC
2. CNC(=O)[C@H](Cc1c[nH]c2ccccc12)NC(=O)[C@@H](CC(=O)NO)CC(C)C [ILOMASTAT]
3. CNC(=O)[C@H](Cc1c[nH]c2ccccc12)NC(=O)[C@@H](CC(=O)NNS(=O)(=O)c1ccc(C)cc1)CC(C)C

Solution:
1: 5.01; 2: 8.28; 3: 5.59

====

Please respond with reported pIC50 for every item in the list.
Molecular target: 72 kDa type IV collagenase (Homo sapiens, UniProt P08253)
Sequence (P08253 whole entry): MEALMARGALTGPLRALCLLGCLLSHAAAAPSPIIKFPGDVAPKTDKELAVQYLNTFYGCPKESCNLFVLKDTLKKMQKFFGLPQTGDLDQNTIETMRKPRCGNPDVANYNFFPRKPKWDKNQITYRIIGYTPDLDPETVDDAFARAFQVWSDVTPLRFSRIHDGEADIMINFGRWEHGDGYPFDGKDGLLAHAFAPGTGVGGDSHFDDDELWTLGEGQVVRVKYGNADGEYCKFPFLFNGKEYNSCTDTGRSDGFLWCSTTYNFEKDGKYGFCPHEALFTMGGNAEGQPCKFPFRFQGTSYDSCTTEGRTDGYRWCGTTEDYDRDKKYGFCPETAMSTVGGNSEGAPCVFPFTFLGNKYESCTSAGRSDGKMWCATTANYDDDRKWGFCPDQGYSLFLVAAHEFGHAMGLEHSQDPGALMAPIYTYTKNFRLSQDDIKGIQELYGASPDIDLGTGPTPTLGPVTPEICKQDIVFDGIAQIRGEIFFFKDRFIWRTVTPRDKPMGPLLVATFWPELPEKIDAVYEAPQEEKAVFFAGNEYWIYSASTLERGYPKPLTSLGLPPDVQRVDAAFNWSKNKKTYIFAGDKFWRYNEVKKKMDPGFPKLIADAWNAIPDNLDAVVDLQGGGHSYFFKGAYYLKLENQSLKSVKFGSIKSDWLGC
Test: Inhibition of human recombinant pro-MMP2 by spectrofluorimeter
Numbers only, as −log10 of the molar value.

SAMPLE_SMILES	pIC50
CNC(=O)[C@H](Cc1c[nH]c2ccccc12)NC(=O)[C@@H](CC(=O)NNc1ccc(Cl)c(Cl)c1)CC(C)C	5.00
CNC(=O)[C@H](Cc1c[nH]c2ccccc12)NC(=O)[C@@H](CC(=O)NNS(=O)(=O)c1ccc(-c2ccc(Br)cc2)cc1)CC(C)C	8.01
CNC(=O)[C@H](Cc1c[nH]c2ccccc12)NC(=O)[C@@H](CC(=O)NNS(=O)(=O)c1ccc(C)cc1)CC(C)C	7.62

Proceeding to the next molecule to report its pIC50.
Problem: What value of measured pIC50 is listed for CCCCCCCCCCCCS(=O)(=O)NNC(=O)C[C@@H](CC(C)C)C(=O)N[C@@H](Cc1c[nH]c2ccccc12)C(=O)NC ?
Solution: 5.85

====

Biological target: Stromelysin-1 (Homo sapiens)
Experiment: Inhibition of human recombinant MMP3 catalytic domain by spectrofluorimeter
REPORTED_PROPERTY: Ki (nM)
Numbers only, in nM.

Problem: What value of measured Ki is listed for CNC(=O)[C@H](Cc1c[nH]c2ccccc12)NC(=O)[C@@H](CC(=O)NNS(=O)(=O)c1ccc(-c2ccc(Br)cc2)cc1)CC(C)C ?
Solution: 415

====

Please respond with reported pIC50 for every item in the list.
Target: Matrix metalloproteinase-9 (Homo sapiens)
Sequence (P14780 whole entry): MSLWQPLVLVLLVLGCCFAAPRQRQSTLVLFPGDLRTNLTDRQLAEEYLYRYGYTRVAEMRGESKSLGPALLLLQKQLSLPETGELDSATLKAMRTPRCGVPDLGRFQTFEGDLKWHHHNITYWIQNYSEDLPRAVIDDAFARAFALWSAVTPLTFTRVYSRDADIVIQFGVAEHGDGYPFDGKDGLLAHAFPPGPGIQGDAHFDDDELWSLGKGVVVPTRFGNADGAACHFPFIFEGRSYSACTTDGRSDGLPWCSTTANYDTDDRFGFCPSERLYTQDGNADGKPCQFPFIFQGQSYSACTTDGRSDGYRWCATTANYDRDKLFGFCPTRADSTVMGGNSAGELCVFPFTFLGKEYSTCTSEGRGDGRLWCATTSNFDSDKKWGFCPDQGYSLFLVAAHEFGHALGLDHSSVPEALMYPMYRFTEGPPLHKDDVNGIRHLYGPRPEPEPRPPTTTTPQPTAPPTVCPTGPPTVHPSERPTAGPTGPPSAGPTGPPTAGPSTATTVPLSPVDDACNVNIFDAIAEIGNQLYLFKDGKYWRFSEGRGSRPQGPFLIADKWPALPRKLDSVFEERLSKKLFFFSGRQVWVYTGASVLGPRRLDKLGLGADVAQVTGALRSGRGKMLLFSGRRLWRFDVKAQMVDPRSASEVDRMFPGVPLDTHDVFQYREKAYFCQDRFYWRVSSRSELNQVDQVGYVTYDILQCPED
Experiment: Inhibition of human recombinant pro-MMP9 by spectrofluorimeter
Give bare numbers, as −log10 of the molar value.

Worked cases, pIC50 given:
SAMPLE_SMILES	pIC50
CNC(=O)[C@H](Cc1c[nH]c2ccccc12)NC(=O)[C@@H](CC(=O)NNS(=O)(=O)c1ccc(-c2ccc(Br)cc2)cc1)CC(C)C	8.52
CCCCCC/C=C(\CC(=O)NNS(=O)(=O)c1ccc(-c2ccc(Br)cc2)cc1)C(=O)N[C@@H](Cc1c(-c2ccccc2)[nH]c2ccccc12)C(=O)NC	6.14
CCCCCC/C=C(\CC(=O)NNS(=O)(=O)c1ccc(-c2ccc(Br)cc2)cc1)C(=O)N[C@@H](Cc1c[nH]c2ccccc12)C(=O)NC	5.59
CNC(=O)[C@H](Cc1c[nH]c2ccccc12)NC(=O)/C(=C/CCc1ccccc1)CC(=O)NNS(=O)(=O)c1ccc(-c2ccc(Br)cc2)cc1	5.90
CNC(=O)[C@H](Cc1c(-c2ccccc2)[nH]c2ccccc12)NC(=O)[C@@H](CC(=O)NNS(=O)(=O)c1ccc(-c2ccc(Br)cc2)cc1)CC(C)C	7.74

Give pIC50 for each listed item.
1. CNC(=O)[C@H](Cc1c[nH]c2ccccc12)NC(=O)[C@@H](CC(=O)NNS(=O)(=O)c1ccc(N2C(=O)CCC2=O)cc1)CC(C)C
2. CNC(=O)[C@H](Cc1c[nH]c2ccccc12)NC(=O)[C@@H](CC(=O)NNS(=O)(=O)c1ccc2ccccc2c1)CC(C)C
3. CNC(=O)[C@H](Cc1c(-c2ccccc2)[nH]c2ccccc12)NC(=O)/C(=C/CCc1ccccc1)CC(=O)NNS(=O)(=O)c1ccc(-c2ccc(Br)cc2)cc1

Solution:
[8.07, 7.96, 6.08]

====

Biological target: Matrix metalloproteinase-14 (Homo sapiens)
Test: Inhibition of human recombinant MMP14 catalytic domain by spectrofluorimeter
pIC50: −log10 of the molar value.
Decision: pIC50 compared against 5; not below it gives Criterion met, below it gives Criterion not met.

Problem: Could you please find out whether CNC(=O)[C@H](Cc1c[nH]c2ccccc12)NC(=O)/C(=C/CCc1ccccc1)CC(=O)NNS(=O)(=O)c1ccc(-c2ccc(Br)cc2)cc1 has pIC50 that meets 5 or exceeds it?
Solution: Criterion met

Problem: Could you please find out whether CCCCCCCCCCCCCCCCS(=O)(=O)NNC(=O)C[C@@H](CC(C)C)C(=O)N[C@@H](Cc1c[nH]c2ccccc12)C(=O)NC has pIC50 that meets 5 or exceeds it?
Solution: Criterion met

Problem: Could you please find out whether CNC(=O)[C@H](Cc1c[nH]c2ccccc12)NC(=O)[C@@H](CC(=O)NNS(=O)(=O)c1ccc(-c2ccc(Br)cc2)cc1)CC(C)C has pIC50 that meets 5 or exceeds it?
Solution: Criterion not met

Problem: Could you please find out whether CNC(=O)[C@H](Cc1c[nH]c2ccccc12)NC(=O)[C@@H](CC(=O)NNc1ccc([N+](=O)[O-])cc1[N+](=O)[O-])CC(C)C has pIC50 that meets 5 or exceeds it?
Solution: Criterion not met

Problem: Could you please find out whether CCCCCC/C=C(\CC(=O)NNS(=O)(=O)c1ccc(-c2ccc(Br)cc2)cc1)C(=O)N[C@@H](Cc1c(-c2ccccc2)[nH]c2ccccc12)C(=O)NC has pIC50 that meets 5 or exceeds it?
Solution: Criterion met

Problem: Could you please find out whether CNC(=O)[C@H](Cc1c(-c2ccccc2)[nH]c2ccccc12)NC(=O)[C@@H](CC(=O)NNS(=O)(=O)c1ccc(-c2ccc(Br)cc2)cc1)CC(C)C has pIC50 that meets 5 or exceeds it?
Solution: Criterion met

Problem: Could you please find out whether CNC(=O)[C@H](Cc1c[nH]c2ccccc12)NC(=O)[C@@H](CC(=O)NNS(=O)(=O)c1ccccc1[N+](=O)[O-])CC(C)C has pIC50 that meets 5 or exceeds it?
Solution: Criterion met
